B1: tRNA (parent)
chain: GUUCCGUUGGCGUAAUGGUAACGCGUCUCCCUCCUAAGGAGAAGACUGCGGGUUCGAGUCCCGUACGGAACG

variants of: B1; experiment: yeast fitness relative to wild type (ratio to wild type); higher = fitter; tRNA-Arg(CCU), competitive growth, 37 C, YPD
Variants at the floor of the assay were thinned out.
MEASURED_PARAMETER: yeast fitness
API doc: respond with a numeric literal and nothing else, no unit.

Quick check: yeast fitness of GUUCCGUUGGCGUAAUGGUAACGCGUCUCCCUCCUAGGGAGAAGACUGAGGGUUCAAGUCCCGUACGGAACG ?
0.607

Quick check: yeast fitness of GUUCCGUUGGCGUAAUGGUAACGCGCCUCCCUCCUAAGGAGAAGACUGCGGGUCCGAGUCCCGUACGGAACG ?
0.887

Quick check: yeast fitness of GUUCCGUUGGCGUAAUGGUUACGCGUCUCCCUCAUAAGGAGAAGACUGCGGGUUGGAGUCCCGUAAGGAACG ?
0.561

Quick check: yeast fitness of GUUACGUUGGCGUAAUGGUAACGCGUCUCCCUCCUAAGGAGAAGACUGCGGGUUCGAGUCCCGUAUGGAACG ?
0.862

Quick check: yeast fitness of GUUCCGUUGGCGUAAUGGUAGCGCGUCUCCCUCCUAAGGAGAAGACUGCGGGAUCGUGUCCCGUUCGGAACG ?
0.52

Quick check: yeast fitness of GUUCCGUUGGCGUAAUGGUAACGUGUCUCCCCCCUAAGGAGAAGAAUGCGGGUUCGAGUCCCGUACGGAACG ?
0.967

Quick check: yeast fitness of GUACCGUUGGCGUAAUGGUAAUGCGUCUCCCUCCUAAGAAGAAGACUGCGGGUUCGAGUCCCGUAUGGAACG ?
0.576

Quick check: yeast fitness of GUUCCGUUGGCGUAAUGGUAACGCGUCUCCCUCCUAAGGAGAAGACUGCCGGUUCGAGUUCAGUACGGAACG ?
0.676

Quick check: yeast fitness of GUUCCGUCGGCGUAAUGGUAACGCGUCUCCCUCCUAAGGAGAAGACUGCGGGUUUGAGUCCCAUACGGAACG ?
0.552

Quick check: yeast fitness of GUUCUGUUGGCGUAAUGGUAACGCGUCUCCCUCCUAAGUAGAAGACUGCGGGUUCGAGUCCCGUACGGAACG ?
0.823

Quick check: yeast fitness of GUUCCGUUGGCGUAAUGGUAACGCGUCUCCCUCCUAAGUAGAAGGCUGCCGGUACGAGUCCCGUACAGAACG ?
0.673

Quick check: yeast fitness of GUUCCGUUGGCGUAAUGGUAACGCGUCUCCCUCCUAAGGAGAAGCCUGCGGGUUGGAGUCCCGUACGGAACG ?
0.528

Quick check: yeast fitness of GUUCCGUUGGCAUAAUGGUUACGCGUCUCCCUCCUAAGGAGCAGACUGCGGGUUCGAGUCCCGUACGGAACG ?
0.692

Quick check: yeast fitness of GUUCCGUUGGCGUAAUGGUAACGCGUCUCCCUCCUAAGGAGAAGACUGCGGGUUCGAGUCCCGUACGAAGCG ?
0.885

Quick check: yeast fitness of GUUCCGUUGGCGUAAUGGUACGGCGUCUCCCUCCUAACGAGAAGACUGCGGGUUCGAGUCCCGUACGGAACG ?
0.52

Quick check: yeast fitness of GUUCCGUUGGCGUAAUGGUAACGCGUCUCCCUCCUAAGGAGAGGACUGCGGGUUCGAGUCUCGUACGGAACG ?
0.887

Quick check: yeast fitness of GUUGCGUUGGCGAAAUCGUAACGCGUCUCUCUCCUAAGGAGAAGACUGCGGGUUCGAGUCCCGUACGGAACG ?
0.657

Quick check: yeast fitness of GGUCCGUUCGCGUAAUGGUGACGCGUCUCCCUCCUAAGGAGCAGAGUGUGGGUUCGAGUCCCGUACGGAACG ?
0.602

Quick check: yeast fitness of GUUCCAUUGGCGUAAUGGUAACGAGUCUCCCUCCUAAGGAGAAGACUGCGGGUUCGAGUCCCGUACGGAACG ?
0.654

Quick check: yeast fitness of GUUCCGUUGGCGUAAUGGUAACGCGUCGCCCUCCUAAGGAGAAGACUGCGGGUUCGCGUCCCGUACGGAACG ?
0.587

Quick check: yeast fitness of GUUCAGUUGGCGUAAUGGUAACGCGUCUCCCUUCUGAGGAGAAGACUGCGGGUUCGAGUCCCGUACGGAACG ?
0.532

Quick check: yeast fitness of GUUCGGUUGGCGUAUUGGUAACGCGUCUCCCUCCUAAGGAGAAGACUGUGGGUUCGUGUCACGUACGGAACG ?
0.663

Quick check: yeast fitness of GUUCCGAUGGCGUAAUGGUAACGCGUCUCCCUCCUAAGGAGAAGACUGUGGGUUCGAGUCCCGUCCGGAACG ?
0.711
